Target: Serotonin 2 (5-HT2) receptor (Mus musculus, UniProt Q02152+P34968+P35363)
Assay: In vitro binding affinity for serotonin 5-hydroxytryptamine (5-HT) 2 receptors
Type: protein assay
reported.metric: log10 Ki (log10 of the value in nM)

- molecule: "Cl.c1ccc(CCCCCOCC2CCN(Cc3ccccc3)CC2)cc1"
  assay.system: "Serotonin 2 (5-HT2) receptor (Mus musculus, UniProt Q02152+P34968+P35363)"
  reported.metric: "log10 Ki"
  value: 2.27
- molecule: "Fc1ccc(-c2ccc(OCC3CCN(CC4CC4)CC3)cc2)cc1"
  assay.system: "Serotonin 2 (5-HT2) receptor (Mus musculus, UniProt Q02152+P34968+P35363)"
  reported.metric: "log10 Ki"
  value: 2.60
- molecule: "O=C(CC1CCN(Cc2ccc(C(F)(F)F)cc2)CC1)c1ccc(F)cc1"
  assay.system: "Serotonin 2 (5-HT2) receptor (Mus musculus, UniProt Q02152+P34968+P35363)"
  reported.metric: "log10 Ki"
  value: 0.78
- molecule: "Cl.O.OC(Cc1ccc(F)cc1)C1CCN(Cc2ccccc2)CC1 (stereo unspecified)"
  assay.system: "Serotonin 2 (5-HT2) receptor (Mus musculus, UniProt Q02152+P34968+P35363)"
  reported.metric: "log10 Ki"
  value: 2.56
- molecule: "CSc1ccc(C(=O)CC2CCN(Cc3ccccc3)CC2)cc1"
  assay.system: "Serotonin 2 (5-HT2) receptor (Mus musculus, UniProt Q02152+P34968+P35363)"
  reported.metric: "log10 Ki"
  value: 2.32
- molecule: "COc1ccc(OCC2CCN(Cc3ccccc3)CC2)cc1"
  assay.system: "Serotonin 2 (5-HT2) receptor (Mus musculus, UniProt Q02152+P34968+P35363)"
  reported.metric: "log10 Ki"
  value: 1.74
- molecule: "O.c1ccc(CN2CCC(COc3ccc4ccccc4c3)CC2)cc1"
  assay.system: "Serotonin 2 (5-HT2) receptor (Mus musculus, UniProt Q02152+P34968+P35363)"
  reported.metric: "log10 Ki"
  value: 2.24
- molecule: "Cl.Clc1ccc(OCC2CCN(CC3CC3)CC2)cc1Cl"
  assay.system: "Serotonin 2 (5-HT2) receptor (Mus musculus, UniProt Q02152+P34968+P35363)"
  reported.metric: "log10 Ki"
  value: 1.94
- molecule: "Cl.O.O=C(CC1CCN(CC2CC2)CC1)c1ccc(C(F)(F)F)cc1"
  assay.system: "Serotonin 2 (5-HT2) receptor (Mus musculus, UniProt Q02152+P34968+P35363)"
  reported.metric: "log10 Ki"
  value: 2.44
- molecule: "O.O=C(Cc1ccc(F)cc1)C1CCN(Cc2ccncc2)CC1.O=C(O)/C=C\\C(=O)O"
  assay.system: "Serotonin 2 (5-HT2) receptor (Mus musculus, UniProt Q02152+P34968+P35363)"
  reported.metric: "log10 Ki"
  value: 3.23
- molecule: "O.OC(Cc1ccc(F)cc1)C1CCN(CCCc2ccccc2)CC1 (stereo unspecified)"
  assay.system: "Serotonin 2 (5-HT2) receptor (Mus musculus, UniProt Q02152+P34968+P35363)"
  reported.metric: "log10 Ki"
  value: 1.61

---

Target: D(2) dopamine receptor (Mus musculus, UniProt P61168)
Sequence (P61168 whole entry): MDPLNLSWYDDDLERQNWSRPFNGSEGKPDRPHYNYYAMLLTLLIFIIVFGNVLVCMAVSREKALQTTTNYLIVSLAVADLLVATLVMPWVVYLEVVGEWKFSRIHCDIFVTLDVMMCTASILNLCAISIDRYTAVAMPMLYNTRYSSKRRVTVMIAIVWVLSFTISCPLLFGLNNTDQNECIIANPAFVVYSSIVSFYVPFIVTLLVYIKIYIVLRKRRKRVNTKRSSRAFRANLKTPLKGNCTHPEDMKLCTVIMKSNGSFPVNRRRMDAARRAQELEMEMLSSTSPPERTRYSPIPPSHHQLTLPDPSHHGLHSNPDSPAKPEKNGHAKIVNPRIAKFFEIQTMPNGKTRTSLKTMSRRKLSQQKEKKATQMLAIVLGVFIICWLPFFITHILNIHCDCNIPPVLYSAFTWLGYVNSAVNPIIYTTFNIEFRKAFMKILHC
Assay: In vitro binding affinity towards dopamine receptor D2
reported.metric: IC50

- molecule: "O=C(CC1CCN(CCc2ccc(Cl)cc2)CC1)c1ccc(F)cc1"
  assay.system: "D(2) dopamine receptor (Mus musculus, UniProt P61168)"
  reported.metric: "IC50"
  value: "0.014 µM"
- molecule: "COc1ccc(OCC2CCN(Cc3ccccc3)CC2)cc1"
  assay.system: "D(2) dopamine receptor (Mus musculus, UniProt P61168)"
  reported.metric: "IC50"
  value: "> 10 µM"
- molecule: "O.c1ccc2cc(OCC3CCN(CC4CC4)CC3)ccc2c1"
  assay.system: "D(2) dopamine receptor (Mus musculus, UniProt P61168)"
  reported.metric: "IC50"
  value: "2.96 µM"
- molecule: "O.OC(CC1CCN(CCc2ccccc2)CC1)c1ccc(F)cc1 (centres undefined)"
  assay.system: "D(2) dopamine receptor (Mus musculus, UniProt P61168)"
  reported.metric: "IC50"
  value: "0.806 µM"
- molecule: "CS(=O)(=O)c1ccc(OCC2CCN(CC3CC3)CC2)cc1"
  assay.system: "D(2) dopamine receptor (Mus musculus, UniProt P61168)"
  reported.metric: "IC50"
  value: "> 10 µM"
- molecule: "CC(O)c1ccc(OCC2CCN(CC3CC3)CC2)cc1 (centres undefined)"
  assay.system: "D(2) dopamine receptor (Mus musculus, UniProt P61168)"
  reported.metric: "IC50"
  value: "> 10 µM"
- molecule: "CC(C)(C)c1ccc(OCC2CCN(CC3CC3)CC2)cc1"
  assay.system: "D(2) dopamine receptor (Mus musculus, UniProt P61168)"
  reported.metric: "IC50"
  value: "3.15 µM"
- molecule: "O=C(CC1CCN(CCc2ccccc2)CC1)c1ccc(F)cc1"
  assay.system: "D(2) dopamine receptor (Mus musculus, UniProt P61168)"
  reported.metric: "IC50"
  value: "0.042 µM"
- molecule: "Fc1ccc(OCC2CCN(Cc3ccc4ccccc4c3)CC2)cc1"
  assay.system: "D(2) dopamine receptor (Mus musculus, UniProt P61168)"
  reported.metric: "IC50"
  value: "4.34 µM"
- molecule: "Br.O=C(CC1CCN(CCC2CC2)CC1)c1ccc(F)cc1"
  assay.system: "D(2) dopamine receptor (Mus musculus, UniProt P61168)"
  reported.metric: "IC50"
  value: "0.22 µM"
- molecule: "c1cc(OCC2CCN(CC3CC3)CC2)ccn1"
  assay.system: "D(2) dopamine receptor (Mus musculus, UniProt P61168)"
  reported.metric: "IC50"
  value: "> 10 µM"
- molecule: "CCCCCN1CCC(COCc2ccc(F)cc2)CC1.Cl"
  assay.system: "D(2) dopamine receptor (Mus musculus, UniProt P61168)"
  reported.metric: "IC50"
  value: "1.32 µM"
- molecule: "COc1ccc(COCC2CCN(Cc3ccccc3)CC2)cc1.O=C(O)/C=C\\C(=O)O"
  assay.system: "D(2) dopamine receptor (Mus musculus, UniProt P61168)"
  reported.metric: "IC50"
  value: "26 µM"
- molecule: "O.O=C(CC1CCN(Cc2ccccc2)CC1)c1ccc(CO)cc1"
  assay.system: "D(2) dopamine receptor (Mus musculus, UniProt P61168)"
  reported.metric: "IC50"
  value: "> 10 µM"
- molecule: "Cl.Fc1ccc(COCC2CCN(Cc3ccc4ccccc4c3)CC2)cc1"
  assay.system: "D(2) dopamine receptor (Mus musculus, UniProt P61168)"
  reported.metric: "IC50"
  value: "0.305 µM"
- molecule: "O.OCc1ccc(OCC2CCN(CC3CC3)CC2)cc1"
  assay.system: "D(2) dopamine receptor (Mus musculus, UniProt P61168)"
  reported.metric: "IC50"
  value: "> 10 µM"
- molecule: "FC(F)(F)c1ccc(OCC2CCN(Cc3ccccc3)CC2)cc1"
  assay.system: "D(2) dopamine receptor (Mus musculus, UniProt P61168)"
  reported.metric: "IC50"
  value: "1.93 µM"
- molecule: "Cl.Fc1c(F)c(F)c(OCC2CCN(CC3CC3)CC2)c(F)c1F"
  assay.system: "D(2) dopamine receptor (Mus musculus, UniProt P61168)"
  reported.metric: "IC50"
  value: "5.68 µM"
- molecule: "Cl.Fc1ccc(OCC2CCN(Cc3ccccc3)CC2)cc1.O"
  assay.system: "D(2) dopamine receptor (Mus musculus, UniProt P61168)"
  reported.metric: "IC50"
  value: "0.87 µM"
- molecule: "[O-][S+](CC1CCN(CCC2CC2)CC1)c1ccc(F)cc1 (centres undefined)"
  assay.system: "D(2) dopamine receptor (Mus musculus, UniProt P61168)"
  reported.metric: "IC50"
  value: "> 10 µM"
- molecule: "Cl.Fc1ccc(OCCC2CCN(Cc3ccccc3)CC2)cc1.O"
  assay.system: "D(2) dopamine receptor (Mus musculus, UniProt P61168)"
  reported.metric: "IC50"
  value: "0.114 µM"
- molecule: "O=S(=O)(CC1CCN(CCC2CC2)CC1)c1ccc(F)cc1"
  assay.system: "D(2) dopamine receptor (Mus musculus, UniProt P61168)"
  reported.metric: "IC50"
  value: "> 10 µM"
- molecule: "COc1ccc(C(O)CC2CCN(Cc3ccccc3)CC2)cc1.Cl (centres undefined)"
  assay.system: "D(2) dopamine receptor (Mus musculus, UniProt P61168)"
  reported.metric: "IC50"
  value: "> 10 µM"
- molecule: "Br.CC(C)(C)c1ccc(C(=O)CC2CCN(CC3CC3)CC2)cc1.O"
  assay.system: "D(2) dopamine receptor (Mus musculus, UniProt P61168)"
  reported.metric: "IC50"
  value: "1.57 µM"
